Source: ChEMBL document CHEMBL4680165

- method: Half life of the compound in phosphate buffer at pH 9 by HPLC analysis
- Assay type: physicochemical
# half-life values compiled below

Sample records with half-life:
[[record]]
molecule_smiles = "COc1ccc([C@H]2[C@H](N)C(=O)N2c2cc(OC)c(OC)c(OC)c2)cc1Cl"
observed = "> 24 h"

[[record]]
molecule_smiles = "COc1ccc([C@H]2[C@H](c3ccccc3)C(=O)N2c2cc(OC)c(OC)c(OC)c2)cc1I"
observed = "5 h"


Next, consider the following molecule.
Consider the molecule COc1ccc([C@H]2[C@H](Oc3ccccc3)C(=O)N2c2cc(OC)c(OC)c(OC)c2)cc1Cl and give its measured half-life.
> 15 h
